assay: Solubility of Que in release medium; assay type: physicochemical; details: PBS containing 0.1% (w/v) Tween 80 (pH 7.4)
measured.endpoint: solubility (µg/mL)
Answers are plain numbers, in µg/mL.

What the record says about O=c1c(O)c(-c2ccc(O)c(O)c2)oc2cc(O)cc(O)c12 [Quercetin, 3,3′,4′,5,7-pentahydroxyflavone] : solubility is 30
